Molecular target: Schistosoma mansoni thioredoxin glutathione reductase (TGR)
Assay: qHTS Assay for the Inhibitors of Schistosoma Mansoni Peroxiredoxins; further: nearly all actives have a fitted effect of over 60% in size
Details: purified TGR, DTNB reduction, TNB absorbance 405 nm; series mostly up to 114 µM
From the text: Schistosomiasis is a major neglected tropical disease that currently affects over 200 million. It is caused by different species of flatworms, such as Schistosoma mansoni. […] In addition, the fluorescence assay was also subject to fluorescence interference from compound library members. […] The assay followed the reduction of 5, 5'-dithiobis (2-nitrobenzoic acid) (DTNB) (Ellman's reagent) by NADPH and measured the increase in absorbance at 412 nm of the reaction product, TNB. […]
Screen size: about 360,000 compounds; about 11,000 (3.1%) were called active. Roughly 4% stayed inconclusive and do not appear here. The call rests on the fitted dose curve; in most records, active means well fitted inhibition curve with a large enough effect; inconclusive means small, poorly fitted or top-dose-only effect; inactive means no such curve, though single readings can be large or run the other way. Only a selection was taken, and actives are over-represented in it overall.
Response enum: active, inactive

Example cases with answers are listed next.
CCOC(=O)c1ccc(NC(=O)Cn2c(=O)n(-c3ccc(C)cc3)c(=O)c3c2cnn3C)cc1    inactive
CCc1ccc(NC(=O)CCCc2nnc3n(CCCOC)c(=O)c4sccc4n23)cc1    inactive
CCN(CC(=O)Nc1cccc(S(=O)(=O)N2CCCCC2)c1)Cc1ccccc1    inactive
CCN(CC(=O)Nc1ccc(Cl)c(S(=O)(=O)N(C)C)c1)Cc1nc2ccccc2c(=O)[nH]1    active
CSc1ccc(CCNC(=O)c2ccc3c(c2)nc2n3CCOC2)cc1    inactive

Hi team, can someone confirm the assay call for COc1ccc(-c2noc(CCC(=O)N(C)c3ccccc3C)n2)cc1 ?
inactive

What was the test verdict on Cc1ccc(-n2ncc3c(=O)n(Cc4cccc(C(F)(F)F)c4)cnc32)cc1C ?
inactive

Which outcome did this test record for the molecule O=C(c1ccco1)N(Cc1nc2ccccc2c(=O)[nH]1)C1CCCC1 ?
inactive

What did this assay record as the result for COc1ccc(CC(=O)NCCc2sc3nc(-c4ccc(OC)cc4)nn3c2C)cc1 ?
inactive

I'd appreciate the recorded outcome for O=C(COc1ccccc1F)Nc1ccc(C(=O)OCc2cc(=O)n3nc(C4CC4)sc3n2)cc1 from this test.
inactive

# fetch the recorded call for Cc1ccc(C)c(Cn2c(CCCNC(=O)C3CCCCC3)nc3ccccc32)c1 here
inactive
